Reported Percent Effect is given for each of the following compounds.
assay system: Tyrosyl-tRNA synthetase, putative (Trypanosoma cruzi (strain CL Brener)) (UniProt Q4DSP6)
Sequence (Q4DSP6 as listed by the source): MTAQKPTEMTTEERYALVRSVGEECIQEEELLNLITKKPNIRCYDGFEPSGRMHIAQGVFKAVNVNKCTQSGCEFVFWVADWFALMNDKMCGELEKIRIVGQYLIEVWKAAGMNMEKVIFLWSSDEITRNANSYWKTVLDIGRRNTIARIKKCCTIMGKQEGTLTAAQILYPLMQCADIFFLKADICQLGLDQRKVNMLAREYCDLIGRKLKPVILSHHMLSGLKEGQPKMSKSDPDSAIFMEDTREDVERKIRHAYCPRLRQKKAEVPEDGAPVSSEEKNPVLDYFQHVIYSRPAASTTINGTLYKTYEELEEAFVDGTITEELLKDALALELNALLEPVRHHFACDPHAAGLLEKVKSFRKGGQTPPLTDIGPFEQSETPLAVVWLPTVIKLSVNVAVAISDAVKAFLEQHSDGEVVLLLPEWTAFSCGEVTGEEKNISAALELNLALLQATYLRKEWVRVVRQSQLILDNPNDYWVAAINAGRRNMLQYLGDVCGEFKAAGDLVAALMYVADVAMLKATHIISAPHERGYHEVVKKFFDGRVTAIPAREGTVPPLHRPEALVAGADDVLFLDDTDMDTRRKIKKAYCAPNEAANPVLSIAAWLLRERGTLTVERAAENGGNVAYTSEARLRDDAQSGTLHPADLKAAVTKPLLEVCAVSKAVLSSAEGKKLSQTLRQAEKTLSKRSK
method summary: Trypanosoma cruzi tyrosyl tRNA synthetase (TcYRS) SOP
Format: functional
Parameters: scale not given: direction of the effect not stated beside the values
condition description: 30 µM
The response must be a number in % with no trailing unit.

Consider the following illustrative entries.
- compound: "COc1ccc(OCCc2sc(C3(O)CCCNCC3)nc2C)cc1 (centres undefined)"
  unit symbol: "%"
  recorded number: 9.09
- compound: "CC(=O)Nc1nc(CN2CCCC2Cn2cncn2)cs1 (centres undefined)"
  unit symbol: "%"
  recorded number: 26.8
- compound: "CS(=O)(=O)NCC1CCCN(C(=O)c2cc3ccccc3o2)C1 (centres undefined)"
  unit symbol: "%"
  recorded number: 23.5
- compound: "CC(O)CN(CC(=O)NC(=O)NC1CC1)c1ccccc1 (centres undefined)"
  unit symbol: "%"
  recorded number: 2.35
- compound: "CC(NC(=O)NCCCN1CCCCCC1)c1nncn1C (centres undefined)"
  unit symbol: "%"
  recorded number: 18.3

Attention now shifts to the item below.
Which Percent Effect value is on record for Cc1cnn(CC2CCCCN2Cc2nnc(-c3ccco3)o2)c1 (centres undefined) ? 18.5

* * *

assay system: Tyrosyl-tRNA synthetase, putative (Trypanosoma cruzi (strain CL Brener))
method summary: Trypanosoma cruzi tyrosyl tRNA synthetase (TcYRS) _High Tyrosine SOP; note: in the data most compounds retested in dose-response had high values
Type: functional
Design: scale not given: direction of the effect not stated beside the values
condition description: 30 µM
readout: Percent Effect (%)
The response must be a number in % with no trailing unit.

Consider the following illustrative entries.
- compound: "CN(CCN1CCOCC1)C(=O)CCc1cccc(Cl)c1"
  recorded number: 1.06
- compound: "COc1ccccc1NC(=O)CSC1CCc2ccccc2NC1=O (stereo unspecified)"
  recorded number: 5.85
- compound: "COc1ccc(CN2C[C@H]3CN(c4ccsc4)C(=O)[C@H]3C2)cc1"
  recorded number: 2.16
- compound: "Cc1nn2cccnc2c1C(=O)N1CCCC(Nc2ccccc2)C1 (stereo unspecified)"
  recorded number: 5.79
- compound: "Cc1sc(NC(=O)CN(C)S(C)(=O)=O)c(C#N)c1C"
  recorded number: 5.29
- compound: "Cc1cccc(-c2nc(CN3CCc4cnc(C)nc4C3)no2)c1"
  recorded number: 10.7
- compound: "CN(Cc1nc2c(cnn2C)c(=O)[nH]1)Cc1ccc(F)cc1F"
  recorded number: 7.18
- compound: "Cc1noc(C2CCN(Cc3cc(=O)n(C)c(=O)n3C)CC2)n1"
  recorded number: 3.68

What reported Percent Effect corresponds to CCCN(CC)C(=O)c1cc2c(c3ccccc3n2C)n1C(=O)N(C)C on Tyrosyl-tRNA synthetase, putative (Trypanosoma cruzi (strain CL Brener))? 6.84

What reported Percent Effect corresponds to COc1ccc(CN2CCc3nc(C4CCCCN4C)ncc3C2)cc1 (stereo unspecified) on Tyrosyl-tRNA synthetase, putative (Trypanosoma cruzi (strain CL Brener))? 21.3

What reported Percent Effect corresponds to CCOc1ncccc1C(=O)N1CCCC1c1c(C)nn(C)c1OC (stereo unspecified) on Tyrosyl-tRNA synthetase, putative (Trypanosoma cruzi (strain CL Brener))? 4.9

* * *

assay system: Tyrosyl-tRNA synthetase, putative (Trypanosoma cruzi (strain CL Brener))
method summary: Trypanosoma cruzi tyrosyl tRNA synthetase (TcYRS) SOP
Type: functional
Parameters: scale not given: direction of the effect not stated beside the values
condition description: 30 µM
Response field label: string, one of satisfied (Percent Effect strictly below 10%) or not satisfied.

- compound: "CCCn1c(C)cc(C(=O)CN2C(=O)c3ccccc3CS2(=O)=O)c1C"
  class: "satisfied"
- compound: "O=C(CCCNC(=O)C1CC1)Nc1cnn(-c2ccccc2Cl)c1"
  class: "not satisfied"
- compound: "COC(=O)C(NC(=O)COC1CCCC1)c1cc(F)ccc1F (centres undefined)"
  class: "not satisfied"
- compound: "Cc1ccsc1CN(C)Cc1nc2c(cnn2C)c(=O)[nH]1"
  class: "not satisfied"
- compound: "Cc1ccc(S(=O)(=O)NC(=O)c2cccc3c2OCCO3)c(C)c1"
  class: "satisfied"

Attention now shifts to the item below.
I'd appreciate it if you could check whether O=C(CN(Cc1cccnc1)CC1CCCO1)Nc1ccc(F)cc1 (centres undefined) has Percent Effect smaller than 10%. satisfied
